# target: α-chymotrypsin (Bos taurus, UniProt P00766)
# assayInfo: Chymotrypsin inhibitory activity of peptides (AAPFpNA hydrolysis; IC50, Ki, residual activity)
# Type: biochemical
# protocolConditions: chymotrypsin 30 nM, AAPFpNA 0.5 mM
pIC50: −log10 of the molar value. Bridge positions count the residues as written; N and C are the ends. Peptide text beside a SMILES is read from it.
property: pIC50

>>> measuredresult("CC[C@H](C)[C@@H]1NC(=O)[C@H](CO)NC(=O)[C@H](CC(C)C)NC(=O)[C@H]([C@@H](C)O)NC(=O)[C@@H](NC(=O)[C@@H](N)Cc2ccccc2)CSSC[C@@H](C(=O)N[C@@H](Cc2ccc(O)cc2)C(=O)NCC(=O)O)NC(=O)[C@H](CCC(N)=O)NC(=O)[C@@H]2CCCN2C(=O)[C@@H]2CCCN2C1=O [CH19] (H-FCTLSIPPQCYG-OH; disulfide 2-10; N-terminus and C-terminus assumed)")
4.95
>>> measuredresult("CC[C@H](C)[C@@H]1NC(=O)[C@H](CO)NC(=O)[C@H](Cc2ccccc2)NC(=O)[C@H]([C@@H](C)O)NC(=O)[C@H](C)NC(=O)[C@H](CO)NC(=O)CNC(=O)[C@@H](N)CSSC[C@@H](C(=O)N[C@@H](Cc2ccc(O)cc2)C(=O)NCC(=O)O)NC(=O)[C@H](CCC(N)=O)NC(=O)[C@@H]2CCCN2C(=O)[C@@H]2CCCN2C1=O [CH13] (H-CGSATFSIPPQCYG-OH; disulfide 1-12; N-terminus and C-terminus assumed)")
5.25
>>> measuredresult("CC[C@H](C)[C@@H]1NC(=O)[C@H](CO)NC(=O)[C@H](Cc2ccc(O)cc2)NC(=O)[C@H]([C@@H](C)O)NC(=O)[C@H](C)NC(=O)[C@H](CO)NC(=O)CNC(=O)[C@@H](N)CSSC[C@@H](C(=O)N[C@@H](Cc2ccccc2)C(=O)NCC(=O)O)NC(=O)[C@H](CCCCN)NC(=O)[C@H](C)NC(=O)[C@@H]2CCCN2C1=O [CH24] (H-CGSATYSIPAKCFG-OH; disulfide 1-12; N-terminus and C-terminus assumed)")
5.21

* * *

# target: porcine pancreatic elastase (Sus scrofa)
# Sequence (P00772 27-266): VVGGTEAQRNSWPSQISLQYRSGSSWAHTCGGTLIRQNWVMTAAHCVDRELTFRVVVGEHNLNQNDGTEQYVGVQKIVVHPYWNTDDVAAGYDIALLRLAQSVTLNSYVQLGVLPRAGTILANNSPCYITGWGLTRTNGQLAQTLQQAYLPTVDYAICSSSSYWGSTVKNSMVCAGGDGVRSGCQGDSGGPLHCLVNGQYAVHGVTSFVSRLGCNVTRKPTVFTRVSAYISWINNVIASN
# assayInfo: Elastase inhibitory activity of peptides (AAApNA hydrolysis; IC50, Ki, residual activity)
# Assay type: biochemical
# protocolConditions: peptide 0.1 μM; elastase 0.5 μM, AAApNA 1 mM
# Protocol: The inhibition constants of various synthetic active peptide inhibitors (molecular scaffolds) against seine proteases were measured. […] Experiments for α-chymotrypsin and bovine trypsin inhibition were measured in 20 mM CaCl2, 50 mM Tris-HCl buffer (pH 7.8), and that for porcine elastase inhibition was measured in 50 mM Tris-HCl buffer (pH 8.0). The concentration of the peptide was measured using optical density (OD) at 280 nm. […]
Bridge positions count the residues as written; N and C are the ends. Peptide text beside a SMILES is read from it.
property: Residual activity of elastase (%)

>>> measuredresult("CC[C@H](C)[C@H](N)C(=O)N[C@H]1CSSC[C@@H](C(=O)N[C@@H](CCC(N)=O)C(=O)O)NC(=O)[C@H]([C@@H](C)CC)NC(=O)[C@@H]2CCCN2C(=O)[C@@H]2CCCN2C(=O)[C@H]([C@@H](C)CC)NC(=O)[C@H](CO)NC(=O)[C@H](C)NC(=O)[C@H]([C@@H](C)O)NC1=O [EC23] (H-ICTASIPPICQ-OH; disulfide 2-10; C-terminus assumed)")
76.8
